For each of the molecules below, state its DC50.
# Target system: IRAK4 (Homo sapiens)
# Construct: endogenous in cells; host or cells: OCI-Ly10
# Measurement description: OCI-LY10 IRAK MSD assay DC50 (IRAK4 degradation)
# Type: cell-based
# Applied conditions: OCI-Ly10 cells, incubated for 4 hr, concentration of compound required to degrade 50% of protein

Consider the worked cases shown below.
COc1cc2nn([C@H]3CC[C@H](CN(C)C4CCN(c5ccn6c(N7CCC(=O)NC7=O)cnc6c5)CC4)CC3)cc2cc1NC(=O)c1cc(F)cc(C(F)(F)F)c1    0.01 to 0.1 µM
C[C@H]1CN(C[C@H]2C[C@H](n3cc(NC(=O)c4cnn5ccc(N6C[C@H]7C[C@@H]6CO7)nc45)c(C(F)F)n3)C2)CC[C@@H]1OCC#Cc1ccn2c(N3CCC(=O)NC3=O)cnc2c1    < 0.01 µM

Would you kindly look at the next entry?
Request the reported DC50 associated with "CC(C)Nc1cc(-n2ccc3cc(C#N)cnc32)ncc1C(=O)N[C@H]1CC[C@H](CN2CCC(c3ccn4c(N5CCC(=O)NC5=O)cnc4c3)CC2)CC1"
0.01 to 0.1 µM

----------
# Target system: IRAK4 (Homo sapiens, UniProt Q9NWZ3)
# Construct: endogenous in cells; host or cells: OCI-Ly10
# Sequence (Q9NWZ3 1-460): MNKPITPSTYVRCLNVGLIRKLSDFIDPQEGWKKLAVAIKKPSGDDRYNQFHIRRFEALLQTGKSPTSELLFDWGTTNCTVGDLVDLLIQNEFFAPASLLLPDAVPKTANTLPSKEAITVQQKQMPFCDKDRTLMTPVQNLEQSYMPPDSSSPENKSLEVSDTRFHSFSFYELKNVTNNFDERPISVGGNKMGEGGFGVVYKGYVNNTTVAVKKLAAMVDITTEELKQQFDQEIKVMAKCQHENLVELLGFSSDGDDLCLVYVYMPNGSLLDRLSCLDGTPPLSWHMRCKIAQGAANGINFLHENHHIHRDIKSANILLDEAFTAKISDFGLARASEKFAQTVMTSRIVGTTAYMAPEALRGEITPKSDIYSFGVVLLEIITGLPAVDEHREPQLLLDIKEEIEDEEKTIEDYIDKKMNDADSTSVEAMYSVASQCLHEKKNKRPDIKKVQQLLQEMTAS
# Measurement description: OCI-LY10 IRAK MSD assay DC50 (IRAK4 degradation)
# Type: cell-based
# Applied conditions: OCI-Ly10 cells, incubated for 4 hr, concentration of compound required to degrade 50% of protein
For each of the compounds below, state its DC50.

Consider the worked cases shown below.
O=C1CCN(c2cncc3c(C#CCOC4CCN(C[C@H]5CC[C@H](n6cc(NC(=O)c7cnn8ccc(N9C[C@H]%10C[C@@H]9CO%10)nc78)c(C(F)F)n6)CC5)CC4)cccc23)C(=O)N1 [I-9]    < 10 nM
O=C1CCN(c2cnc3cc(C#CCOC4CCN(C[C@H]5CC[C@H](n6cc(NC(=O)c7cnn8ccc(N9C[C@H]%10C[C@@H]9CO%10)nc78)c(C(F)F)n6)CC5)CC4)ccn23)C(=O)N1 [I-3]    < 10 nM
COc1cc2nn([C@H]3CC[C@H](CN(C)C4CCN(c5ccn6c(N7CCC(=O)NC7=O)cnc6c5)CC4)CC3)cc2cc1NC(=O)c1cccc(C(F)(F)F)n1 [I-31]    < 10 nM
N#Cc1cnc2c(C(=O)Nc3ccc4nn([C@H]5CC[C@H](CN6CCC(c7cccn8c(N9CCC(=O)NC9=O)cnc78)CC6)CC5)cc4c3)cnn2c1 [I-65]    10 to 100 nM
CC(C)Nc1cc(-c2ccc3cc(C#N)cnn23)ncc1C(=O)N[C@H]1CC[C@H](CN2CCC(c3cccn4c(N5CCC(=O)NC5=O)cnc34)CC2)CC1 [I-73]    10 to 100 nM
O=C1CCN(c2cnc3cc(C#CCO[C@@H]4CCN(C[C@H]5CC[C@H](n6cc(NC(=O)c7cnn8ccc(N9C[C@H]%10C[C@@H]9CO%10)nc78)c(C(F)F)n6)CC5)C[C@@H]4F)ccn23)C(=O)N1 [I-70]    < 10 nM
O=C1CCN(c2cncc3cc(C4CCN(C[C@H]5CC[C@H](n6cc7cc(NC(=O)c8cccc(C(F)(F)F)n8)ncc7n6)CC5)CC4)ccc23)C(=O)N1 [I-18]    < 10 nM
COc1cc2nn([C@H]3CC[C@H](CN4CCC(c5ccn6c(N7CCC(=O)NC7=O)cnc6c5)CC4)CC3)cc2cc1NC(=O)c1cncc(C#N)c1 [I-84]    > 200 nM
COc1cc2nn([C@H]3CC[C@H](CN4C5CCC4CN(c4ccn6c(N7CCC(=O)NC7=O)cnc6c4)C5)CC3)cc2cc1NC(=O)c1cccc(C(F)(F)F)n1 [I-45]    10 to 100 nM
CN(C[C@H]1CC[C@H](n2cc3cc(NC(=O)c4cccc(C(F)(F)F)n4)ccc3n2)CC1)C1CCN(c2ccn3c(N4CCC(=O)NC4=O)cnc3c2)CC1 [I-35]    < 10 nM

Would you kindly look at the next entry?
Request the reported DC50 associated with Cc1cc2nn([C@H]3CC[C@H](CN4CCN(c5cccn6c(N7CCC(=O)NC7=O)cnc56)CC4)CC3)cc2cc1NC(=O)c1cccc(C(F)(F)F)n1 [I-49]
10 to 100 nM

Hello, the source for this data is patent US20250375526A1, in case you need it.
